- Test system: UO-31 renal
- Assay Summary: NCI-60 one-dose screen, 48 h (100 = growth as untreated, 0 = no growth, -100 = all killed)
- Condition Label: 10 µM unless noted
The panel holds about 83,000 compounds, 20% with a hit somewhere; the sample as a whole holds those more often.
Entries whose growth is below 30% take Criterion met; entries at or above 30% take Criterion not met.

Exercise: Please determine if CC(C)CCN(CCC(C)C)CC(O)c1cc2c(c3ccccc13)CCCC2 (stereo unspecified) is below 30% in terms of growth.
Solution: Criterion not met

Exercise: Please determine if "Cc1c2ccncc2c(C)c2c1c1cc(CO)ccc1n2C" is below 30% in terms of growth.
Solution: Criterion met

Exercise: Please determine if "CN1CCN(C(=O)[C@@]2(C)CC[C@]3(C)CC[C@]4(C)C(=CC[C@@H]5[C@@]6(C)CCC(=O)NC(C)(C)[C@@H]6CC[C@]54C)[C@@H]3C2)CC1" is below 30% in terms of growth.
Solution: Criterion not met

Exercise: Please determine if "COc1ccc(C(=O)Cn2c(C(=O)c3ccc(Cl)cc3)nc3ccccc32)cc1" is below 30% in terms of growth.
Solution: Criterion not met

Exercise: Please determine if "CCCCCCCCCCCCCOC(=O)c1c(C)[nH]c(/C=C2\N=C(c3ccc[nH]3)C=C2OC)c1C" is below 30% in terms of growth.
Solution: Criterion met

Exercise: Please determine if "Cc1cn(-c2cc(NC(=O)c3cncc(C#Cc4c(N)ncc5ccc(F)cc45)c3)cc(C(F)(F)F)c2)cn1" is below 30% in terms of growth.
Solution: Criterion met
